Kindly supply the reported EC50 values for the records listed here.
# target of assay: Cannabinoid receptor 1 (Homo sapiens, UniProt P21554)
# Sequence (P21554 whole entry): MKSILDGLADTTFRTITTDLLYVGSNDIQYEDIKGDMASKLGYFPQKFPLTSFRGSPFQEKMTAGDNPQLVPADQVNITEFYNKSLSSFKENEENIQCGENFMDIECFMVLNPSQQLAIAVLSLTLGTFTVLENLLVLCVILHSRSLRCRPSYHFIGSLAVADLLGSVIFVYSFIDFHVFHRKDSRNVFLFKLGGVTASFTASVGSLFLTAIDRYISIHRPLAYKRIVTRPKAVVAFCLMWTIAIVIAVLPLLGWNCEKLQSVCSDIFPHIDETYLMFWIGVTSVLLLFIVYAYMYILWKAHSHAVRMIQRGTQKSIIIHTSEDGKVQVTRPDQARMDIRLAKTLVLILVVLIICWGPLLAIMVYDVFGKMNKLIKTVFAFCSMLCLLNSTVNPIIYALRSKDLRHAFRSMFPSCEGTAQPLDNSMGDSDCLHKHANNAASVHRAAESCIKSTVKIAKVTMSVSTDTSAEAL
# test name: Inverse agonist activity at human recombinant CB1R expressed in CHO cells assessed as increase in forskolin-stimulated cAMP level
# Type: functional, cell-based
Answers are plain numbers, in nM.

Consider the worked cases shown below.
Cc1cc(C)cc(S(=O)(=O)N2CCN(C(=O)C3CCCCC3)CC2)c1 = 1.1
N#Cc1ccc(CC(=O)N2CCN(S(=O)(=O)c3cc(Cl)cc(Cl)c3)CC2)cc1 = 0.5
O=C(C1CCCCC1)N1C2CC1CN(S(=O)(=O)c1cccc3ccccc13)C2 = 900
O=C(CCc1ccc(C(F)(F)F)cc1)N1CCN(S(=O)(=O)c2cc(Cl)cc(Cl)c2)CC1 = 0.5
O=C(C1CC1)N1CCN(S(=O)(=O)c2cc(Cl)cc(Cl)c2)CC1 = 5

Take each entry in turn and give its EC50.
1. CC1(C)CN(S(=O)(=O)c2cccc3ccccc23)CCN1C(=O)C1CCCCC1
2. O=C(C1CCCCC1)N1CCN(S(=O)(=O)c2cccc3ccccc23)CC1C(F)(F)F (stereo not given)

Out:
1: 0.6; 2: 2.5

// data source = ChEMBL document CHEMBL1153427
